Test system: barnyardgrass
Assay: Soil treatment test for upland field
Type: in vivo, Echinochloa crusgalli
Design: key: 0: normal development; 1: Less damaged; 2: Slightly damaged; 3: Moderately damaged; 4: Severely damaged; 5: All killed
Conditions: 500 g/ha, glass house 25° C., 3 weeks
metric: Effects Barnyardgrass
Just the number, please, no unit after it.

// query Can you look up the measured Effects Barnyardgrass of CCC(Oc1cccc(C(F)(F)F)c1)c1nc2cc(Cl)c(C)cc2o1 (centres unmarked) for me?
// result 3

// query Can you look up the measured Effects Barnyardgrass of CCC(Oc1ccc(F)c(C(F)(F)F)c1)c1nc2ccc(F)cc2o1 (centres unmarked) for me?
// result 1

// query Can you look up the measured Effects Barnyardgrass of CCC(Oc1ccc(F)c(C(F)(F)F)c1)c1nc2cc(F)c(Cl)cc2o1 (centres unmarked) for me?
// result 4

// query Can you look up the measured Effects Barnyardgrass of CC(Oc1cccc(C(F)(F)F)c1)c1nc2cc(Cl)ccc2o1 (centres unmarked) for me?
// result 1

// query Can you look up the measured Effects Barnyardgrass of CCC(Oc1ccc(F)c(C(F)(F)F)c1)c1nc2cc(OC)ccc2o1 (centres unmarked) for me?
// result 5

// query Can you look up the measured Effects Barnyardgrass of CCCC(Oc1cccc(C(F)(F)F)c1)c1nc2cc(Cl)ccc2o1 (centres unmarked) for me?
// result 3

// query Can you look up the measured Effects Barnyardgrass of CCC(Oc1cccc(S(C)(=O)=O)c1)c1nc2cc(S(C)(=O)=O)ccc2o1 (centres unmarked) for me?
// result 4

// query Can you look up the measured Effects Barnyardgrass of CCC(Oc1ccc(Cl)c(C(F)(F)F)c1)c1nc2cc(C#N)c(Cl)cc2o1 (centres unmarked) for me?
// result 4

// query Can you look up the measured Effects Barnyardgrass of CCC(Oc1ccc(Cl)c(C(F)(F)F)c1)c1nc2cc(F)ccc2o1 (centres unmarked) for me?
// result 5

// query Can you look up the measured Effects Barnyardgrass of CCC(Oc1cccc(C(F)(F)F)c1)c1nc2cc(C#N)ccc2o1 (centres unmarked) for me?
// result 5

// query Can you look up the measured Effects Barnyardgrass of CCC(Oc1cccc(C(F)(F)F)c1)c1nc2cc(C#N)c(Cl)cc2o1 (centres unmarked) for me?
// result 5
